- System: HL-1
- EXPERIMENT NOTES: relative cell viability (CellTiter-Glo) vs DMSO control (% of DMSO control); higher = more viable cells
- MEASUREMENT PARAMETERS: oxygen condition: hypoxia 48 h (1% O2) + reoxygenation 24 h; 5000 nM
Counter-ions that a name gives are not always drawn.

# COMPOUND, relative cell viability
rows = [
    ("O=C1CN2Cc3c(ccc(Cl)c3Cl)N=C2N1 [Anagrelide HCl]", 108),
    ("CC(C)C[C@H](NC(=O)[C@H](Cc1ccccc1)NC(=O)c1cnccn1)B(O)O", 4.58),
    ("C=C1c2cccc(O)c2C(=O)C2=C(O)[C@]3(O)C(=O)C(C(N)=O)=C(O)[C@@H](N(C)C)[C@@H]3[C@@H](O)[C@H]12 [Methacycline hydrochloride]", 109),
    ("CN1CCOC(c2ccccc2)c2ccccc2C1 (stereo not drawn) [Nefopam HCl]", 93.2),
    ("CC(C)NCC(O)COc1ccc(CCOCC2CC2)cc1 (stereo not drawn) [Betaxolol hydrochloride]", 79.8),
    ("CN(C)C/C=C/C(=O)Nc1cc2c(Nc3ccc(F)c(Cl)c3)ncnc2cc1O[C@H]1CCOC1", 64.7),
    ("COC(=O)[C@@H]1CC2=CC(=O)CC[C@]2(C)[C@@]23O[C@@H]2C[C@@]2(C)[C@@H](CC[C@@]24CCC(=O)O4)[C@H]13", 103),
    ("COc1ccccc1OCC(O)COC(N)=O (stereo not drawn)", 119),
]

* * *

- Test system: HL-1
- EXPERIMENT NOTES: relative cell viability (CellTiter-Glo) vs DMSO control (% of DMSO control); higher = more viable cells
- MEASUREMENT PARAMETERS: oxygen condition: hypoxia 48 h (1% O2) + reoxygenation 24 h; 5000 nM
Structures can show the parent of a compound that is named as a salt.
Listed next: entries and their corresponding relative cell viability.

# MOLECULE, relative cell viability
records = [
    ("Clc1ccccc1CN1CCc2sccc2C1 [Ticlopidine HCl]", 103),
    ("CCCN(CCC)CCc1cccc2c1CC(=O)N2 [Ropinirole HCl]", 114),
    ("Cc1ccc(NC(=O)c2ccc(CN3CCN(C)CC3)cc2)cc1Nc1nccc(-c2cccnc2)n1 [Imatinib Mesylate]", 111),
    ("Nc1nc2[nH]cc(CCc3ccc(C(=O)N[C@@H](CCC(=O)O)C(=O)O)cc3)c2c(=O)[nH]1", 74.8),
    ("Cc1ccc(C(=O)c2cc(O)c(O)c([N+](=O)[O-])c2)cc1", 116),
    ("CC(CCc1ccc(O)cc1)NCC(O)c1ccc(O)cc1 (centres undefined) [Ractopamine HCl]", 60.4),
    ("CC(=O)O[C@H]1C[C@@H]2CC[C@@H]3[C@H](CC[C@@]4(C)[C@H]3C[C@H]([N+]3(C)CCCCC3)[C@@H]4OC(C)=O)[C@@]2(C)C[C@@H]1N1CCCCC1 [Vecuronium Bromide]", 119),
    ("Nc1nc(F)nc2c1ncn2[C@@H]1O[C@H](COP(=O)(O)O)[C@@H](O)[C@@H]1O [Fludarabine Phosphate]", 113),
    ("COCCOC(=O)C1=C(C)NC(C)=C(C(=O)OC(C)C)C1c1cccc([N+](=O)[O-])c1 (centres undefined)", 107),
    ("CC[C@@H]1/C=C(\\C)C[C@H](C)C[C@H](OC)[C@H]2O[C@@](O)(C(=O)C(=O)N3CCCC[C@H]3C(=O)O[C@H](/C(C)=C/[C@@H]3CC[C@H](Cl)[C@H](OC)C3)[C@H](C)[C@@H](O)CC1=O)[C@H](C)C[C@@H]2OC", 104),
    ("Cc1nc(Nc2ncc(C(=O)Nc3c(C)cccc3Cl)s2)cc(N2CCN(CCO)CC2)n1", 90.2),
    ("CCOC(=O)C1=C(C)NC(C)=C(C(=O)OC)C1c1cccc([N+](=O)[O-])c1 (centres undefined)", 107),
    ("C[C@]12C=CC(=O)N[C@@H]1CC[C@@H]1[C@@H]2CC[C@]2(C)[C@@H](C(=O)Nc3cc(C(F)(F)F)ccc3C(F)(F)F)CC[C@@H]12 [Dutasteride]", 108),
    ("CO[C@H]1C(=O)[C@]2(C)[C@@H](OC)C[C@H]3OC[C@@]3(OC(C)=O)[C@H]2[C@H](OC(=O)c2ccccc2)[C@]2(O)C[C@H](OC(=O)[C@H](O)[C@@H](NC(=O)OC(C)(C)C)c3ccccc3)C(C)=C1C2(C)C", 36.6),
]

* * *

- Tested on: HL-1
- EXPERIMENT NOTES: relative cell viability (CellTiter-Glo) vs DMSO control (% of DMSO control); higher = more viable cells
- MEASUREMENT PARAMETERS: oxygen condition: normoxia 72 h; 200 nM
Structures can show the parent of a compound that is named as a salt.

# COMPOUND, relative cell viability
rows = [
    ("O=c1oc2c(O)c(O)cc3c(=O)oc4c(O)c(O)cc1c4c23", 113),
    ("COc1cc(OC)c(C(=O)CCCN2CCCC2)c(OC)c1 [Buflomedil HCl]", 103),
    ("C=C1CC[C@H](O)C/C1=C/C=C1\\CCC[C@]2(C)[C@@H]([C@H](C)/C=C/[C@H](C)C(C)C)CC[C@@H]12 [Vitamin D2]", 105),
    ("O=C(O)C1(C(=O)O)CCC1.[NH2-].[NH2-].[Pt+2]", 106),
    ("CCC(=O)NCC[C@@H]1CCc2ccc3c(c21)CCO3", 108),
    ("N#CC[C@H](C1CCCC1)n1cc(-c2ncnc3[nH]ccc23)cn1", 96.6),
    ("C[C@]12CCC3=C4CCC(=O)C=C4CC[C@H]3[C@@H]1CC[C@@]2(O)CC#N", 102),
    ("CC[C@@H](CO)NCCN[C@@H](CC)CO [Ethambutol HCl]", 91.3),
    ("Nc1nc(CC(=O)Nc2ccc(CCNC[C@H](O)c3ccccc3)cc2)cs1", 104),
]

* * *

- System: HL-1
- EXPERIMENT NOTES: relative cell viability (CellTiter-Glo) vs DMSO control (% of DMSO control); higher = more viable cells
- MEASUREMENT PARAMETERS: oxygen condition: normoxia 72 h; 5000 nM
Counter-ions that a name gives are not always drawn.

# COMPOUND, relative cell viability
data = [
    ("CCCCNC(=O)NS(=O)(=O)c1ccc(C)cc1 [Tolbutamide]", 110),
    ("O=C(O)c1cc(=O)c2ccccc2o1", 115),
    ("NC(=O)c1cccnc1 [Nicotinamide]", 102),
    ("COc1ccc(CN(CCN(C)C)c2ccccn2)cc1 [Pyrilamine Maleate]", 124),
    ("Cc1cccc(Nc2ccncc2S(=O)(=O)NC(=O)NC(C)C)c1 [Torsemide]", 105),
    ("CCOc1nc2cccc(C(=O)OC(C)OC(=O)OC3CCCCC3)c2n1Cc1ccc(-c2ccccc2-c2nn[nH]n2)cc1 (centres undefined)", 4.11),
    ("CC(C)NCC(O)COc1ccc(CCOCC2CC2)cc1 (centres undefined) [Betaxolol hydrochloride]", 69.3),
    ("Clc1ccc(C(Cn2ccnc2)OCc2ccc(Sc3ccccc3)cc2)c(Cl)c1 (centres undefined) [Fenticonazole nitrate]", 104),
    ("CC1CNc2c(cccc2S(=O)(=O)N[C@@H](CCCNC(=N)N)C(=O)N2CC[C@@H](C)C[C@@H]2C(=O)O)C1 (some centres undefined)", 106),
]

* * *

- Test system: HL-1
- EXPERIMENT NOTES: relative cell viability (CellTiter-Glo) vs DMSO control (% of DMSO control); higher = more viable cells
- MEASUREMENT PARAMETERS: oxygen condition: normoxia 72 h; 200 nM
Response field label takes condition met when relative cell viability is strictly below 100 and condition not met in all other cases.

# MOLECULE, GROUP LABEL
records = [
    ("O=C1NC(=O)C(c2ccccc2)(c2ccccc2)N1", "condition met"),
    ("N#Cc1ccc(C(c2ccc(C#N)cc2)n2cncn2)cc1", "condition not met"),
    ("CS(=O)(=O)c1ccc(C2=C(c3ccccc3)C(=O)OC2)cc1", "condition met"),
    ("N#C[C@@H]1CCCN1C(=O)CNC12CC3CC(CC(O)(C3)C1)C2", "condition met"),
    ("C[C@@H](O[C@H]1OCCN(Cc2nn(P(=O)(O)O)c(=O)[nH]2)[C@H]1c1ccc(F)cc1)c1cc(C(F)(F)F)cc(C(F)(F)F)c1 [Fosaprepitant dimeglumine]", "condition not met"),
]

* * *

- Tested on: HL-1
- EXPERIMENT NOTES: relative cell viability (CellTiter-Glo) vs DMSO control (% of DMSO control); higher = more viable cells
- MEASUREMENT PARAMETERS: oxygen condition: normoxia 72 h; 5000 nM
Where a name gives a salt, the structure may show the parent alone.
ENDPOINT NAME: relative cell viability

# MOLECULE, VALUE MEASURED
data = [
    ("CCCCc1nc(Cl)c(CO)n1Cc1ccc(-c2ccccc2-c2nnn[nH]2)cc1", 110),
    ("CC(=O)O[C@H]1CC[C@@]2(C)C(=CC[C@@H]3[C@@H]2CC[C@]2(C)C(c4cccnc4)=CC[C@@H]32)C1 [Abiraterone Acetate]", 115),
    ("CCC(NC(C)C)C(O)c1ccc(O)c(O)c1 (stereo not given) [Isoetharine Mesylate]", 111),
    ("O=S(=O)(O)CCS", 123),
    ("C[C@H]1O[C@H](O[C@H]2[C@H](O)[C@@H](O)[C@@H](O[C@H]3[C@H](O)[C@@H](O)C(O)O[C@@H]3CO)O[C@@H]2CO)[C@H](O)[C@@H](O)[C@@H]1N[C@H]1C=C(CO)[C@@H](O)[C@H](O)[C@H]1O (stereo not given in full)", 107),
]
